Origin of measurements: patent US20200165291A1

system_under_test: [35S]-TBPS binding, rat brain cortical membranes (GABA receptor complex)
method_description: [35S]-TBPS binding (steroid inhibition of TBPS binding)
measurement_setup: in the presence of 5 μM GABA, read-out: 35S-TBPS Radioligand Displacement
measurement_name: IC50

compound="CO[C@@H]1C[C@@H]2[C@H](CC[C@]3(C)[C@@H](C(=O)Cn4ccnn4)CC[C@@H]23)[C@H]2CC[C@@](C)(O)C[C@H]21 [SL-1]" test_value="> 500 nM"
compound="C[C@@]1(O)CC[C@@H]2[C@H]3CC[C@]4(C)[C@@H](C(=O)Cn5ccnn5)CC[C@H]4[C@@H]3C[C@@H](F)[C@H]2C1 [SV-1]" test_value="100 to 500 nM"
compound="CC[C@@]1(O)CC[C@H]2[C@H](CC[C@@H]3[C@@H]2CC[C@]2(C)[C@@H](C(=O)Cn4ccnn4)CC[C@@H]32)C1 [SE-3]" test_value="100 to 500 nM"
compound="C[C@@]1(O)CC[C@@H]2[C@H]3CC[C@]4(C)[C@@H](C(=O)Cn5nccn5)CC[C@H]4[C@@H]3C[C@@H](F)[C@@H]2C1 [SH-2]" test_value="> 500 nM"
compound="C[C@]12CC[C@H]3[C@@H](CC[C@H]4C[C@@](O)(C(F)F)CC[C@@H]43)[C@@H]1CC[C@@H]2C(=O)Cn1ccnn1 [SS-1]" test_value="100 to 500 nM"
compound="C[C@@H]1C[C@H]2[C@@H](CC[C@@H]3[C@@H]2CC[C@]2(C)[C@@H](C(=O)Cn4ccnn4)CC[C@@H]32)C[C@]1(C)O [SN-1]" test_value="50 to 100 nM"
compound="CC[C@@]1(O)CC[C@H]2[C@H](CC[C@@H]3[C@@H]2CC[C@]2(C)[C@@H](C(=O)Cn4nccn4)CC[C@@H]32)C1 [SE-4]" test_value="50 to 100 nM"
compound="CC[C@@]1(O)CC[C@H]2[C@H](CC[C@@H]3[C@@H]2CC[C@]2(C)[C@@H](C(=O)Cn4nnc(C)n4)CC[C@@H]32)C1 [SE-6]" test_value="> 500 nM"
compound="CC[C@@]1(O)CC[C@H]2[C@H](CC[C@@H]3[C@@H]2CC[C@]2(C)[C@@H](C(=O)Cn4nnnc4C)CC[C@@H]32)C1 [SE-5]" test_value="> 500 nM"
compound="C[C@@]1(O)CC[C@H]2[C@@H](CC[C@@H]3[C@@H]2CC[C@]2(C)[C@@H](C(=O)Cn4ccnn4)CC[C@@H]32)C1 [SB-6]" test_value="50 to 100 nM"
compound="CCOC[C@@]1(O)CC[C@H]2[C@@H](CC[C@@H]3[C@@H]2CC[C@]2(C)[C@@H](C(=O)Cn4ccnn4)CC[C@@H]32)C1 [SQ-1]" test_value="> 500 nM"
compound="Cc1nnnn1CC(=O)[C@H]1CC[C@H]2[C@@H]3CC[C@@H]4C[C@](C)(O)CC[C@@H]4[C@H]3CC[C@]12C [SA-6]" test_value="1 to 50 nM"
compound="CCO[C@H]1C[C@H]2[C@@H](CC[C@@H]3[C@@H]2CC[C@]2(C)[C@@H](C(=O)Cn4nccn4)CC[C@@H]32)C[C@]1(C)O [SY-2]" test_value="100 to 500 nM"
